tested on: HCC1954 cells; assay: MTT assay; assay type: cell-based; settings: Homo sapiens, HCC1954, 24 h, read-out: IC50, µM (M ± SD)
Listing of entries alongside the reported IC50.

molecule	tested-target	IC50 (µM)
O=C1CC(N2C(=O)C(=CC(Cl)=Cc3ccc([N+](=O)[O-])cc3)SC2=S)C(=O)N1c1ccc(Cl)cc1 (stereo not shown) [Les-6294]	HCC1954 cells	4.53
COc1cccc2c1C(=O)c1c(O)c3c(c(O)c1C2=O)C[C@@](O)(C(=O)CO)C[C@@H]3O[C@H]1C[C@H](N)[C@H](O)[C@H](C)O1 [Dox, doxorubicin, reference compound]	HCC1954 cells	1.9
O=C1CC(N2C(=O)C(=CC(Cl)=Cc3ccc([N+](=O)[O-])cc3)SC2=S)C(=O)N1c1ccc(Br)cc1 (stereo not shown) [Les-6328]	HCC1954 cells	9.91
O=C1CC(N2C(=O)C(=CC(Cl)=Cc3ccc([N+](=O)[O-])cc3)SC2=S)C(=O)N1c1ccc(O)cc1 (stereo not shown) [Les-6287]	HCC1954 cells	2.52
